studyTarget: Cyno BCMA
assayInfo: Kinetics and affinity of cyno BCMA/human IgG interactions by SPR (Bio-Rad Proteon XPR36)
Type: binding, cynomolgus
conditionSet: 37° C.
// values below are reported kd Cyno

molecule	kd Cyno / s⁻¹
A02_Rd4_6 nM_C04: anti-BCMA antibody (antibody, V domains shown) VH: EVQLLESGGGLVQPGGSLRLSCAASGFTFSSYAMNWVRQAPGKGLEWVSAIMSSGGPLYYADSVKGRFTISRDNSKNTLYLQMNSLRAEDTAVYYCARYWPMALWGQGTLVTVSS VL: EIVLTQSPGTLSLSPGERATLSCRASQSVSALYLAWYQQKPGQAPRLLMYDASIRATGIPDRFSGSGSGTDFTLTISRLEPEDFAVYYCQQYQVWPLTFGQGTKVEIK	0.000831
C01_Rd4_6 nM_C26: anti-BCMA antibody (antibody, V domains shown) VH: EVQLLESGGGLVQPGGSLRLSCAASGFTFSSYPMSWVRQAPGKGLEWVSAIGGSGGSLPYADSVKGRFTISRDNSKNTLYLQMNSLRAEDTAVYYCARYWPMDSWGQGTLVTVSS VL: EIVLTQSPGTLSLSPGERATLSCRASQSVSALYLAWYQQKPGQAPRLLIYDASSRAPGIPDRFSGSGSGTDFTLTISRLEPEDFAVYYCQQYSAWPLTFGQGTKVEIK	0.00199
COMBO_Rd4_0.6 nM_C19: anti-BCMA antibody (antibody, V domains shown) VH: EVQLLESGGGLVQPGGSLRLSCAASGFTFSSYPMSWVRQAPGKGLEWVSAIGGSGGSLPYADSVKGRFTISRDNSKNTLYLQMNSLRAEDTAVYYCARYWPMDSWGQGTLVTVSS VL: EIVLTQSPGTLSLSPGERATLSCRASQSVSAVYLAWYQQKPGQAPRLLMYDASIRATGIPDRFSGSGSGTDFTLTISRLEPEDFAVYYCQQYRAWPLTFGQGTKVEIK	0.000979
A02_Rd4_6 nM_C03: anti-BCMA antibody (antibody, V domains shown) VH: EVQLLESGGGLVQPGGSLRLSCAASGFTFSSYAMNWVRQAPGKGLEWVSAISDSGGSTYYADSVKGRFTISRDNSKNTLYLQMNSLRAEDTAVYYCARYWPMDIWGQGTLVTVSS VL: EIVLTQSPGTLSLSPGERATLSCRASQSVSNLYLAWYQQKPGQAPRLLMYDASIRATGIPDRFSGSGSGTDFTLTISRLEPEDFAVYYCQQYQGWPLTFGQGTKVEIK	0.000185
A02_Rd4_0.6 nM_C03: anti-BCMA antibody (antibody, V domains shown) VH: EVQLLESGGGLVQPGGSLRLSCAASGFTFSSYAMNWVRQAPGKGLEWVSAISDSGGSKWYADSVKGRFTISRDNSKNTLYLQMNSLRAEDTAVYYCARYWPMSLWGQGTLVTVSS VL: EIVLTQSPGTLSLSPGERATLSCRASQSVSSSYLAWYQQKPGQAPRLLMYDASIRATGIPDRFSGSGSGTDFTLTISRLEPEDFAVYYCQQYFTWPLTFGQGTKVEIK	0.000426

Where do the numbers come from? From patent US11814435B2.
